# credit: PubChem BioAssay (NCI)

Items are presented alongside their recorded growth.
- Test system: UACC-257 melanoma
- test: NCI-60 one-dose screen, 48 h (100 = growth as untreated, 0 = no growth, -100 = all killed)
- applied.conditions: 10 µM unless noted
About 83,000 compounds went through this panel and 20% of them were active in at least one assay; those are over-represented in the sample as a whole.
Give just the number in %; leave the unit off.

{"substance.smiles": "O=C(C[P+](c1ccccc1)(c1ccccc1)c1ccccc1)c1ccccc1", "measurement.label": "growth", "measured.value": 101}
{"substance.smiles": "O=C(/C=C/C(Cl)(Cl)Cl)Nc1ccc(Cl)cc1", "measurement.label": "growth", "measured.value": 102}
{"substance.smiles": "O=C(c1ccccc1)N(CCCl)C(=O)N(CCCl)C(=O)c1ccccc1", "measurement.label": "growth", "measured.value": 101}
{"substance.smiles": "O=C(OC12CC3CC(CC(C3)C1)C2)c1ccc(NCc2cc(O)ccc2O)cc1", "measurement.label": "growth", "measured.value": 5.57}
{"substance.smiles": "CCSc1nc2ccccc2o1", "measurement.label": "growth", "measured.value": 106}

Please examine the following record next.
Value of growth reported for the compound `O=C(Nc1ccc(Cl)c(Cl)c1)OCc1ccco1` is 62.6

* * *

- Tested on: CCRF-CEM leukemia
- test: NCI-60 one-dose screen, 48 h
- applied.conditions: 10 µM unless noted
The panel holds about 83,000 compounds, 20% with a hit somewhere; the sample as a whole holds those more often. Activity calls are given as the source filed them. Rule for the calls: active = growth percent below 10; inactive = the rest.
Outcomes you can answer with include only these: true for active, false for inactive

Please state the recorded outcome for this compound: `CCCCCCCCCCCCCCCCCC1=NCCCN1CCO`
false

* * *

Items are presented alongside their recorded growth.
- Test system: T-47D breast
- test: NCI-60 one-dose screen, 48 h (100 = growth as untreated, 0 = no growth, -100 = all killed)
- applied.conditions: 10 µM unless noted
This is part of a sample that, as a whole, favours compounds with a hit. Of some 83,000 tested, about 20% had one in any assay.
Give just the number in %; leave the unit off.

{"compound": "CCOc1ccc2c(c1)/C(=C\\C=C\\C1CC(C)C3CC(OCC)CCC3N1CC)CC(C)N2CC (stereo unspecified)", "growth / %": 9.32}
{"compound": "CCN(CC)CCNc1ccc([N+](=O)[O-])c2sc3ccccc3c(=O)c12", "growth / %": 45.5}
{"compound": "CCCCCCCCCCCCCCCc1ccc(C(=O)C[n+]2ccccc2)cc1", "growth / %": -25.1}
{"compound": "Cc1cc(C(=O)c2ccc(Cl)cc2)ccc1O", "growth / %": 97}
{"compound": "O=C1Nc2ccc(Br)cc2C1=O", "growth / %": 96.2}

Value of growth reported for the compound CCCCCCC1N=C(N)N=C(N)N1c1cccc(Cl)c1 (stereo unspecified) is 51.8

* * *

- Tested on: 786-0 renal
- test: NCI-60 one-dose screen, 48 h (100 = growth as untreated, 0 = no growth, -100 = all killed)
- applied.conditions: 10 µM unless noted
About 83,000 compounds went through this panel and 20% of them were active in at least one assay; those are over-represented in the sample as a whole.
The label yes (1) is reserved for growth strictly under 50%; no (0) covers values equal to or above it.

Some solved entries appear below for comparison.
{"compound": "CCCCCCCCCCCC[n+]1ccc(CCCCCCCCC)cc1", "discrete.label": "yes (1)"}
{"compound": "CC1(C)OCC(COC(c2ccccc2)(c2ccccc2)c2ccccc2)O1 (stereo unspecified)", "discrete.label": "no (0)"}

Confirm or reject: growth of `CCc1oc2ccccc2c1C(=O)c1cc(Br)c(O)c(Br)c1` lies strictly below 50%
no (0)

Confirm or reject: growth of `O=C1C=Cc2ccccc2/C1=C/c1nc(-c2ccccc2)oc1O` lies strictly below 50%
no (0)

Confirm or reject: growth of `c1ccc(-c2cc3cc4ccccc4cn3c2)cc1` lies strictly below 50%
no (0)

Confirm or reject: growth of CCCCCCCCCCCCCCCC[N+]1(C)CCCC1c1cccnc1 (stereo unspecified) lies strictly below 50%
no (0)

* * *

- System: UO-31 renal
- test: NCI-60 one-dose screen, 48 h (100 = growth as untreated, 0 = no growth, -100 = all killed)
- applied.conditions: 10 µM unless noted
Compounds without any hit were thinned out: in the full panel of roughly 83,000, 20% have a hit. *1 amine or outer side, *2 acyl side, *3 side chain or, on linkers, in order; H or OH if unused. Where a SMILES comes first, the peptide text is derived from it. Bridges are numbered along the chain shown (N, C = ends). Roman numbers before positions name the chains, in order. [ ]: non-standard residue; d: D form. Actinocin(1to9) = Cc1c2oc3c(C)ccc(C(=O)[*:2])c3nc-2c(C(=O)[*:1])c(N)c1=O; NMeV = CN[CH](C(=O)O)C(C)C; Sar = CNCC(=O)O
Classification field: Condition met = growth at or over 60%; Condition not met = growth under 60%.

Some solved entries appear below for comparison.
{"molecule": "O=C(Cc1ccccc1)C(F)(F)F", "experimental.system": "UO-31 renal", "discrete.label": "Condition met"}
{"molecule": "COc1ccc2nc3cc(Cl)ccc3c(NCCCCCN3CCCCC3)c2c1", "experimental.system": "UO-31 renal", "discrete.label": "Condition not met"}
{"molecule": "Cc1cc(C)c([I+]c2c(C)cc(C)cc2C)c(C)c1", "experimental.system": "UO-31 renal", "discrete.label": "Condition not met"}
{"molecule": "Cc1nc(Sc2nc3ccc([N+](=O)[O-])cc3s2)sc1C", "experimental.system": "UO-31 renal", "discrete.label": "Condition not met"}

Please turn your attention to the following entry.
For this molecule, is measured growth 60% or higher? CCC(C)C1NC(=O)C(NC(=O)c2c3nc4c(C(=O)NC5C(=O)NC(C(C)CC)C(=O)N6CCCC6C(=O)N(C)CC(=O)N(C)C(C(C)C)C(=O)OC5C)ccc(C)c4oc-3c(C)c(=O)c2N)C(C)OC(=O)C(C(C)C)N(C)C(=O)CN(C)C(=O)C2CCCN2C1=O (centres undefined) (I: TIP[Sar][NMeV] / II: TIP[Sar][NMeV]; ester I:1-I:C, II:1-II:C; linker I:N-II:N via Actinocin(1to9); configuration not given here)
Condition not met

* * *

- Tested on: MDA-MB-231 breast
- test: NCI-60 one-dose screen, 48 h (100 = growth as untreated, 0 = no growth, -100 = all killed)
- applied.conditions: 10 µM unless noted
About 83,000 compounds went through this panel and 20% of them were active in at least one assay; those are over-represented in the sample as a whole.
Items are presented alongside their recorded growth.
Give just the number in %; leave the unit off.

Please review the entries below; each comes with its answer.
{"compound": "O=C(CCl)N1c2ccccc2Sc2c1ccc1ccccc21", "growth (%)": 76.4}
{"compound": "Nc1ccc(C(=O)/C=C/c2ccccc2)cc1", "growth (%)": 98.2}

Value of growth reported for the compound `Nc1ccc(-c2ccc(N)c(S(=O)(=O)O)c2)cc1S(=O)(=O)O` is 110

Value of growth reported for the compound `CCCCCCCCCCCC[n+]1ccc(CCCCCCCCC)cc1` is -81.1

Value of growth reported for the compound `Cc1ccc2c(c1)sc(-c1ccc(N(C)C)cc1)[n+]2C` is 2.82

* * *

- Test system: TK-10 renal
- test: NCI-60 one-dose screen, 48 h (100 = growth as untreated, 0 = no growth, -100 = all killed)
- applied.conditions: 10 µM unless noted
Compounds without any hit were thinned out: in the full panel of roughly 83,000, 20% have a hit.
measurement.label: growth (%)
Give just the number in %; leave the unit off.

Please review the entries below; each comes with its answer.
{"compound": "O=C1C=CC(O)=CC1=P(c1ccccc1)(c1ccccc1)c1ccccc1", "unit.name": "%", "measured.value": 96.3}
{"compound": "NC1=C(Br)C(=O)c2ncccc2C1=O", "unit.name": "%", "measured.value": 79.1}
{"compound": "O=[N+]([O-])CC(O)c1ccccc1 (stereo not given)", "unit.name": "%", "measured.value": 111}
{"compound": "Clc1ccc(Cc2nc3ccccc3s2)cc1", "unit.name": "%", "measured.value": 119}
{"compound": "CCCCCCCCCCCCCCCC[N+]1(C)CCCC1c1cccnc1 (stereo not given)", "unit.name": "%", "measured.value": 49.7}
{"compound": "Cc1cc(C)c(C#N)c(Sc2nc(C)c([N+](=O)[O-])c(C)c2C#N)n1", "unit.name": "%", "measured.value": 75.2}
{"compound": "N#CCc1cccc2ccccc12", "unit.name": "%", "measured.value": 98.3}
{"compound": "Oc1ccc(Br)cc1Sc1cc(Br)ccc1O", "unit.name": "%", "measured.value": 115}
{"compound": "O=Nc1ccc2ccccc2c1O", "unit.name": "%", "measured.value": 9.55}
{"compound": "Nc1nc2ncc(CNc3ccc(C(=O)NC(CCC(=O)NC(CCC(=O)NC(CCC(=O)NC(CCC(=O)NC(CCC(=O)O)C(=O)O)C(=O)O)C(=O)O)C(=O)O)C(=O)O)cc3)nc2c(=O)[nH]1 (stereo not given)", "unit.name": "%", "measured.value": 119}

Value of growth reported for the compound `O=C1Nc2ccc(Br)cc2C1=O` is 131

Value of growth reported for the compound `COc1cc(NC(=O)C2=C(C)NC(C)=C(C(=O)Nc3cc(OC)c(Cl)cc3OC)C2c2cccc([N+](=O)[O-])c2)c(OC)cc1Cl` is 70.6
